// data source = patent US10501481B2

Assign MIC to each entry below.
system: E. coli 131119 (TEM-1, OXA-48); test: MIC broth microdilution, alone and synergy with ceftazidime; conditions: Escherichia coli, read-out: MIC compounds of the invention alone
Numbers only, in µg/mL.

Some compounds with recorded MIC:
| compound | measured_property | measured_result |
| --- | --- | --- |
| COC(=O)Cn1c2c(sc1=O)C1CN(C2)C(=O)N1OS(=O)(=O)[O-].[Na+] (stereo not shown) | MIC | 2 |
| NCCn1c2c(sc1=O)C1CN(C2)C(=O)N1OS(=O)(=O)[O-].[Na+] (stereo not shown) | MIC | 2 |

Value wanted: MIC (E. coli 131119 (TEM-1, OXA-48)) of entry Cn1c2c(sc1=O)C1CN(C2)C(=O)N1OS(=O)(=O)[O-].[Na+] (stereo not shown)
1

* * *

Assign pIC50 to each entry below.
molecular target: TEM-1 (Escherichia coli, UniProt P62593); assay: β-lactamase inhibitory activity, nitrocefin hydrolysis; settings: class (A); 30 min pre-incubation; nitrocefin 200 μM
Sequence (P62593 24-286 limits assumed): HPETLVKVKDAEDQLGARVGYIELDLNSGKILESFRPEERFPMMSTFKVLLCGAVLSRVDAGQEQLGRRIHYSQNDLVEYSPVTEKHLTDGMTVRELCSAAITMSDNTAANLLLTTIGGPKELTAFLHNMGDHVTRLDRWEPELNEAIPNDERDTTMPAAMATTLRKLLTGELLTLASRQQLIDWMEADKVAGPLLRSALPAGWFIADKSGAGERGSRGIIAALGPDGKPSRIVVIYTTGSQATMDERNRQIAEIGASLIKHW
One number for each entry, as −log10 of the molar value.

Some compounds with recorded pIC50:
| compound | measured_result |
| --- | --- |
| N=C(N)NCCn1c2c(sc1=O)C1CN(C2)C(=O)N1OS(=O)(=O)[O-].[Na+] (stereo not drawn) | 8.15 |
| O=C1N2Cc3c(sc(=O)n3CCO)C(C2)N1OS(=O)(=O)[O-].[Na+] (stereo not drawn) | 8.74 |
| NCCn1c2c(sc1=O)C1CN(C2)C(=O)N1OS(=O)(=O)[O-].[Na+] (stereo not drawn) | 8.34 |
| Cn1c2c(sc1=O)C1CN(C2)C(=O)N1OS(=O)(=O)[O-].[Na+] (stereo not drawn) | 8.48 |
| CC(C)(C)OC(=O)NCCn1c2c(sc1=O)C1CN(C2)C(=O)N1OS(=O)(=O)[O-].[Na+] (stereo not drawn) | 8.24 |

Now for the compound whose pIC50 we want.
Fill in the blank: the reported pIC50 of COC(=O)Cn1c2c(sc1=O)C1CN(C2)C(=O)N1OS(=O)(=O)[O-].[Na+] (stereo not drawn) is ____.
9.19

* * *

molecular target: OXA-1 (Escherichia coli); assay: β-lactamase inhibitory activity, nitrocefin hydrolysis
Sequence (P13661 26-276): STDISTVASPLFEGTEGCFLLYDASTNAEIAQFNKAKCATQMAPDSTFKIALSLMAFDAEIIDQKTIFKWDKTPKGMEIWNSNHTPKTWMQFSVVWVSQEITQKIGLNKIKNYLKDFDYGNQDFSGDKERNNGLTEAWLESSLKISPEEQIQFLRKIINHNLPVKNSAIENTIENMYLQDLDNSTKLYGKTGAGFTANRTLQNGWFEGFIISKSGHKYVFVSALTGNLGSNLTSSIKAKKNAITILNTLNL
Assign IC50 to each entry below.
Numbers only, in µM.

Some compounds with recorded IC50:
| compound | system | IC50 / µM |
| --- | --- | --- |
| NCCn1c2c(sc1=O)C1CN(C2)C(=O)N1OS(=O)(=O)[O-].[Na+] (stereo not drawn) [Example 4] | OXA-1 (Escherichia coli) | 0.46 |
| CC(C)(C)OC(=O)NCCn1c2c(sc1=O)C1CN(C2)C(=O)N1OS(=O)(=O)[O-].[Na+] (stereo not drawn) [Example 3] | OXA-1 (Escherichia coli) | 0.13 |
| Cn1c2c(sc1=O)C1CN(C2)C(=O)N1OS(=O)(=O)[O-].[Na+] (stereo not drawn) [Example 1] | OXA-1 (Escherichia coli) | 0.063 |
| COC(=O)Cn1c2c(sc1=O)C1CN(C2)C(=O)N1OS(=O)(=O)[O-].[Na+] (stereo not drawn) [Example 2] | OXA-1 (Escherichia coli) | 0.038 |
| N=C(N)NCCn1c2c(sc1=O)C1CN(C2)C(=O)N1OS(=O)(=O)[O-].[Na+] (stereo not drawn) [Example 6] | OXA-1 (Escherichia coli) | 1.7 |

Now for the compound whose IC50 we want.
Fill in the blank: the reported IC50 of O=C1N2Cc3c(sc(=O)n3CCO)C(C2)N1OS(=O)(=O)[O-].[Na+] (stereo not drawn) [Example 5] is ____.
0.31

* * *

tested on: C. murliniae 210102 (VIM-4); assay: MIC broth microdilution, alone and synergy with ceftazidime; settings: read-out: MIC compounds of the invention alone
measured_property: MIC (mg/L)
One number for each entry, in mg/L.

| compound | MIC / mg/L |
| --- | --- |
| NCCn1c2c(sc1=O)C1CN(C2)C(=O)N1OS(=O)(=O)[O-].[Na+] (stereo not shown) [Example 4] | 4 |
| O=C1N2Cc3c(sc(=O)n3CCO)C(C2)N1OS(=O)(=O)[O-].[Na+] (stereo not shown) [Example 5] | 8 |
| Cn1c2c(sc1=O)C1CN(C2)C(=O)N1OS(=O)(=O)[O-].[Na+] (stereo not shown) [Example 1] | 32 |

Now for the compound whose MIC we want.
Fill in the blank: the reported MIC of COC(=O)Cn1c2c(sc1=O)C1CN(C2)C(=O)N1OS(=O)(=O)[O-].[Na+] (stereo not shown) [Example 2] is ____.
16

* * *

system: E. cloacae UFR38 (CTX-M-15, NDM-1); assay: MIC broth microdilution, alone and synergy with ceftazidime; conditions: strain UFR38; compound fixed at 4 μg/mL
Assign MIC of CAZ in combination with compound at 4 μg/mL to each entry below.

| molecule | measured_result |
| --- | --- |
| NCCn1c2c(sc1=O)C1CN(C2)C(=O)N1OS(=O)(=O)[O-].[Na+] (stereo not shown) [Example 4] | <0.25 µg/mL |
| Cn1c2c(sc1=O)C1CN(C2)C(=O)N1OS(=O)(=O)[O-].[Na+] (stereo not shown) [Example 1] | >128 µg/mL |
| O=C1N2Cc3c(sc(=O)n3CCO)C(C2)N1OS(=O)(=O)[O-].[Na+] (stereo not shown) [Example 5] | <0.25 µg/mL |

Now for the molecule whose MIC of CAZ in combination with compound at 4 μg/mL we want.
Fill in the blank: the reported MIC of CAZ in combination with compound at 4 μg/mL of COC(=O)Cn1c2c(sc1=O)C1CN(C2)C(=O)N1OS(=O)(=O)[O-].[Na+] (stereo not shown) [Example 2] is ____.
>128 µg/mL

* * *

biological target: CTX-M-15 (Escherichia coli, UniProt Q9EXV5); assay: β-lactamase inhibitory activity, nitrocefin hydrolysis
Sequence (Q9EXV5 entry or part of it): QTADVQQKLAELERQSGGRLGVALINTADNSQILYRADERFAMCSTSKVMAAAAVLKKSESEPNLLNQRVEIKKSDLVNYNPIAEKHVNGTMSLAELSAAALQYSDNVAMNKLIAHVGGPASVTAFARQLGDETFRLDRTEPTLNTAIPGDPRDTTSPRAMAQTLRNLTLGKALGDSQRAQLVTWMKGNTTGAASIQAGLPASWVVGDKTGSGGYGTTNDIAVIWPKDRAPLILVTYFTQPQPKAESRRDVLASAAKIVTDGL
measured_property: pIC50
One number for each entry, as −log10 of the molar value.

| compound | measured_property | measured_result |
| --- | --- | --- |
| NCCn1c2c(sc1=O)C1CN(C2)C(=O)N1OS(=O)(=O)[O-].[Na+] (stereo not drawn) [Example 4] | pIC50 | 8.89 |
| COC(=O)Cn1c2c(sc1=O)C1CN(C2)C(=O)N1OS(=O)(=O)[O-].[Na+] (stereo not drawn) [Example 2] | pIC50 | 8.96 |
| Cn1c2c(sc1=O)C1CN(C2)C(=O)N1OS(=O)(=O)[O-].[Na+] (stereo not drawn) [Example 1] | pIC50 | 9.16 |
| O=C1N2Cc3c(sc(=O)n3CCO)C(C2)N1OS(=O)(=O)[O-].[Na+] (stereo not drawn) [Example 5] | pIC50 | 9.17 |
| CC(C)(C)OC(=O)NCCn1c2c(sc1=O)C1CN(C2)C(=O)N1OS(=O)(=O)[O-].[Na+] (stereo not drawn) [Example 3] | pIC50 | 9.31 |

Now for the compound whose pIC50 we want.
Fill in the blank: the reported pIC50 of N=C(N)NCCn1c2c(sc1=O)C1CN(C2)C(=O)N1OS(=O)(=O)[O-].[Na+] (stereo not drawn) [Example 6] is ____.
8.27

* * *

Assign IC50 to each entry below.
target: OXA-15 (Pseudomonas aeruginosa, UniProt Q51574); construct: made in house; host or cells: E. coli; test: β-lactamase inhibitory activity, nitrocefin hydrolysis; type: biochemical
Sequence (Q51574 22-275): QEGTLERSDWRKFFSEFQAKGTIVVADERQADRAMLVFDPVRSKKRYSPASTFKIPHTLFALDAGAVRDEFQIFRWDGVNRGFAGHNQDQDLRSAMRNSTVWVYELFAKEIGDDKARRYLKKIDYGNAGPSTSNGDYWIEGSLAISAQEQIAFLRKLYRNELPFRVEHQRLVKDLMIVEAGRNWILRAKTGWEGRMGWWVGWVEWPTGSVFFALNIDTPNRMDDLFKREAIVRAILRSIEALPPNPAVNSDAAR

Some compounds with recorded IC50:
| compound | IC50 |
| --- | --- |
| CC(C)(C)OC(=O)NCCn1c2c(sc1=O)C1CN(C2)C(=O)N1OS(=O)(=O)[O-].[Na+] (stereo not drawn) | 97 nM |
| O=C1N2Cc3c(sc(=O)n3CCO)C(C2)N1OS(=O)(=O)[O-].[Na+] (stereo not drawn) | 190 nM |
| NCCn1c2c(sc1=O)C1CN(C2)C(=O)N1OS(=O)(=O)[O-].[Na+] (stereo not drawn) | 300 nM |

# return IC50 for each item in the list
1. N=C(N)NCCn1c2c(sc1=O)C1CN(C2)C(=O)N1OS(=O)(=O)[O-].[Na+] (stereo not drawn)
2. Cn1c2c(sc1=O)C1CN(C2)C(=O)N1OS(=O)(=O)[O-].[Na+] (stereo not drawn)
3. COC(=O)Cn1c2c(sc1=O)C1CN(C2)C(=O)N1OS(=O)(=O)[O-].[Na+] (stereo not drawn)

["120 nM", "250 nM", "57 nM"]

* * *

system: P. aeruginosa CIP107051 (TEM-24); assay: MIC broth microdilution, alone and synergy with ceftazidime; details: strain CIP107051; compound fixed at 4 μg/mL
Assign MIC of CAZ in combination with compound at 4 μg/mL to each entry below.
Numbers only, in µg/mL.

# return MIC of CAZ in combination with compound at 4 μg/mL for each item in the list
1. NCCn1c2c(sc1=O)C1CN(C2)C(=O)N1OS(=O)(=O)[O-].[Na+] (stereo not drawn)
2. O=C1N2Cc3c(sc(=O)n3CCO)C(C2)N1OS(=O)(=O)[O-].[Na+] (stereo not drawn)
3. N=C(N)NCCn1c2c(sc1=O)C1CN(C2)C(=O)N1OS(=O)(=O)[O-].[Na+] (stereo not drawn)

1. 4
2. 4
3. 8
